- test_target: T1, VEGFR-1-Fc (UniProt P17948 27-338)
- T1 construct: domain: first three Ig domains; expressed in Drosophila S2 cells, purified on Protein A sepharose; also called VEGFR-1-Fc fusion protein; not shown: Fc fragment from the Signal-pIgPlus vector
- T1 sequence (P17948 27-338): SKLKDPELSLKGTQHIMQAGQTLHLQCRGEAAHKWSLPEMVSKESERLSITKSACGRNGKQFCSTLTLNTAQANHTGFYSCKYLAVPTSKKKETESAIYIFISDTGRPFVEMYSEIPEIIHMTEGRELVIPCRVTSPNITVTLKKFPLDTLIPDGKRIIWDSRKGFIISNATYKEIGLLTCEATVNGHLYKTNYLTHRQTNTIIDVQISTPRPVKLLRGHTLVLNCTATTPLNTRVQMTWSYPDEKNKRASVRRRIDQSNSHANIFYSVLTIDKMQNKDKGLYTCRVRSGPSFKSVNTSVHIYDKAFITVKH
- measurement_protocol: receptor-Fc IP

| binder | binding result |
| --- | --- |
| 83-13 (ligand) AHYNTEILKFMDVYQRSYCHPIETLVDIFQEYPDEIEYIFKPPCVSVYRCGGCCNDEGLECVPTEESNITMQIMRITVPLSQGPKPVTISFANHTSCRCMSKLD | binds |

Data origin: patent US20080058263A1
